- measured_on: MAPK14;MAPK11;MAPK12 (human)
- test_description: Inhibition of p38 Kinase Activity
pIC50: −log10 of the molar value.
# Lookup of reported pIC50 keyed by entry

Before answering, review these 4 worked examples.
CCc1ccc(CN2CC[C@@H](Nc3nc(Nc4cc(C(N)=O)ccc4C)nc(N(C)CC(C)C)n3)C2)cc1    > 6.00
CC(C)c1nc(NC[C@@H]2CC[C@@H]3C[C@H]2C3(C)C)nc(Nc2ccc3ncsc3c2)n1    > 5.00
CCNC(=O)N(C)CCCN(C)c1nc(NCC(C)c2ccccc2)nc(Nc2ccc3ncsc3c2)n1 (stereo not given)    > 5.00
Cc1ccc(C(N)=O)cc1Oc1nc(N[C@@H]2CCNC2)nc(N(C)CC(C)(C)C)n1    > 4.52

Now consider the entry below.
# input compound: `Cc1ccc(C(N)=O)cc1Nc1nc(N[C@H]2CCN(CC(C)(C)C)C2)nc(N(C)CC(C)(C)C)n1` ; wanted: its pIC50
> 6.00

----------
# Lookup of reported IC50 keyed by entry
- measured_on: MAPK14;MAPK11;MAPK12 (human)
- test_description: Inhibition of p38 Kinase Activity

Before answering, review these 3 worked examples.
COCC(=O)N1CC2CC1CN2c1nc(NCC(C)c2ccccc2)nc(Nc2ccc3ncsc3c2)n1 (stereo not drawn)    < 10000 nM
CNC(=O)c1ccc(C)c(Oc2nc(NCc3ccccn3)nc(N(C)CC(C)(C)C)n2)c1    < 30000 nM
Cc1ccc(C(N)=O)cc1Nc1nc(N[C@H]2CCN(C3CCC3)C2)nc(N(C)CC(C)(C)C)n1    < 1000 nM

Find the measured IC50: item `COc1ncc(CN2CC[C@@H](Nc3nc(Nc4cc(C(N)=O)ccc4C)nc(N(C)CC(C)C)n3)C2)c(OC)n1` , target or system MAPK14;MAPK11;MAPK12 (human).
< 1000 nM

----------
# Lookup of reported pIC50 keyed by entry
- measured_on: MAPK14;MAPK11;MAPK12 (human)
- test_description: Inhibition of p38 Kinase Activity
pIC50: −log10 of the molar value.

Before answering, review these 5 worked examples.
NC(=O)C1CCN(c2cc(Nc3ccc4ncsc4c3)nc(NC3CCC3)n2)CC1    > 5.00
CC(C)c1nc(NCC(C)c2ccccc2)nc(Nc2ccc3ncsc3c2)n1 (centres undefined)    > 5.00
CNCCN(C)c1nc(NCC(C)c2ccccc2)nc(Nc2cccc(Br)c2)n1 (centres undefined)    > 5.00
C=CCN1CC[C@H](Nc2nc(Nc3cc(C(=O)NCC)ccc3C)nc(N(C)CC3CCCC3)n2)C1    > 6.00
Cc1ccc(C(N)=O)cc1Nc1nc(NCC2CCCC2)nc(N[C@H]2CCNC2)n1    > 6.00

# input molecule: `Cc1ccc(C(N)=O)cc1Nc1nc(N[C@H]2CCN(Cc3ccccc3)C2)nc(N(C)CC(C)(C)C)n1` ; wanted: its pIC50
> 6.00

----------
# Lookup of reported pIC50 keyed by entry
- measured_on: MAPK14;MAPK11;MAPK12 (human) (UniProt Q16539)
- test_description: Inhibition of p38 Kinase Activity
pIC50: −log10 of the molar value.

Before answering, review these 5 worked examples.
Cc1ccc(C(N)=O)cc1Nc1nc(N[C@H]2CCN(Cc3ccc(O)cc3)C2)nc(N(C)CC(C)C)n1    > 6.00
CNCCN(C)c1nc(NCC(C)c2ccccc2)nc(Nc2ccc3nc(C)sc3c2)n1 (centres undefined)    > 5.00
CC(CNc1nc(Nc2ccc3ncsc3c2)nc(N(C)CCCN(C)C(=S)NC2CCCCC2)n1)c1ccccc1 (centres undefined)    > 5.00
Cc1ccc(C(N)=O)cc1Nc1nc(N[C@H]2CCNC2)nc(N(C)C[C@H](C)c2ccccc2)n1    > 6.00
CCCC1(C)CCN(c2nc(Nc3cc(C(N)=O)ccc3C)nc(N[C@@H]3CCNC3)n2)C1 (some centres undefined)    > 6.00

Find the measured pIC50: item `Cc1ccc(C(N)=O)cc1Nc1nc(N[C@H]2CCNC2)cc(N(C)CC(C)C)n1` , target or system MAPK14;MAPK11;MAPK12 (human) (UniProt Q16539).
> 6.00

How about CONC(=O)c1ccc(C)c(Nc2nc(NC(C)c3ccccn3)nc(N(C)CC(C)(C)C)n2)c1 (centres undefined) ?
> 6.00

How about `CNc1nc(NCc2ccc(F)cc2F)nc(Nc2ccc3ncsc3c2)n1` ?
> 5.00

How about `Cc1ccc(CN2CC[C@H](Nc3nc(Nc4cc(C(N)=O)ccc4C)nc(N(C)CC(C)C)n3)C2)cc1` ?
> 6.00

----------
# Lookup of reported IC50 keyed by entry
- measured_on: MAPK14;MAPK11;MAPK12 (human) (UniProt Q16539)
- test_description: Inhibition of p38 Kinase Activity

Before answering, review these 2 worked examples.
Cc1ccc(C(N)=O)cc1Nc1nc(O)nc(NCC(C)c2ccccc2)n1 (stereo not given)    < 1000 nM
CC(C)c1nc(Nc2ccc3ncsc3c2)nc(N2CCNCC2)n1    < 10000 nM

# input molecule: `Cc1ccc(C(N)=O)cc1Nc1nc(N[C@H]2CCN(Cc3ccccc3)C2)nc(N(C)CC(C)C)n1` ; wanted: its IC50
< 1000 nM

How about `CCC(C)(C)c1nc(Nc2cc(C(N)=O)ccc2C)nc(N[C@H]2CCNC2)n1` ?
< 1000 nM

How about `Cc1ccc(C(N)=O)cc1Nc1nc(N[C@H]2CCCC[C@H]2NC(=O)CO[C@H]2C[C@@H](C)CC[C@H]2C(C)C)nc(N(C)CC(C)C)n1` ?
< 1000 nM

----------
- measured_on: MAPK14;MAPK11;MAPK12 (human) (UniProt Q16539)
- test_description: Inhibition of p38 Kinase Activity
pIC50: −log10 of the molar value.
observation_type: pIC50

Before answering, review these 4 worked examples.
Clc1cccc(Nc2nc(Cl)nc(Nc3ccc4ncsc4c3)n2)c1    > 5.00
C[C@H](CNc1ncnc(Nc2ccc3ncsc3c2)n1)c1ccccc1    > 5.00
Cc1ccc(C(N)=O)cc1Oc1nc(NCc2ccccn2)nc(N(C)CC(C)(C)C)n1    > 4.52
Cc1ccc(C(N)=O)cc1Nc1nc(NCC2CCNCC2)nc(NC2CCCC2)n1    > 6.00

Now consider the entry below.
# input molecule: `CONC(=O)c1ccc(C)c(Nc2nc(N(C)CC(C)(C)C)nc(N3CCCNCC3)n2)c1` ; wanted: its pIC50
> 6.00

----------
- measured_on: MAPK14;MAPK11;MAPK12 (human) (UniProt Q16539)
- test_description: Inhibition of p38 Kinase Activity
pIC50: −log10 of the molar value.
# Lookup of reported pIC50 keyed by entry

Before answering, review these 4 worked examples.
CONC(=O)c1ccc(C)c(Nc2nc(NCc3cccc(F)c3)nc(N(C)CC(C)(C)C)n2)c1    > 6.00
Cc1ccc(C(N)=O)cc1Nc1nc(NCC(C)c2ccccc2)nc(N[C@@H]2CCNC2)n1 (some centres undefined)    > 6.00
CSc1nc2ccc(Nc3nc(NC[C@H](C)O)nc(N[C@@H](C)C4CCCCC4)n3)cc2s1    > 5.00
CCNC(=O)c1ccc(C)c(Nc2nc(NCC(C)(C)C)nc(N[C@H]3CCNC3)n2)c1    > 6.00

# input compound: CC(CNc1nc(Nc2ccc3ncsc3c2)nc(N2CC3CC2CN3S(=O)(=O)N(C)C)n1)c1ccccc1 (centres undefined) ; wanted: its pIC50
> 5.00

----------
- measured_on: MAPK14;MAPK11;MAPK12 (human) (UniProt Q16539)
- test_description: Inhibition of p38 Kinase Activity
# Lookup of reported IC50 keyed by entry

Before answering, review these 4 worked examples.
CC(CCCCCCNc1nc(NCC(C)c2ccccc2)nc(Nc2ccc3ncoc3c2)n1)C(N)=O (stereo not given)    < 10 µM
CC(=O)N1CCN(c2nc(Nc3ccc4ncsc4c3)nc(N(C)CC3CCC4CC3C4(C)C)n2)CC1 (stereo not given)    < 10 µM
Clc1nc(Nc2ccc3ncsc3c2)nc(N2CCc3ccccc3C2)n1    < 10 µM
CNC(=O)CCC(=O)N1CCN(c2nc(NCC3CC[C@H]4C[C@@H]3C4(C)C)nc(Nc3ccc4ncsc4c3)n2)CC1 (stereo not given in full)    < 10 µM

Now consider the entry below.
# input compound: `Cc1ccc(C(=O)Nc2ccccn2)cc1Nc1nc(N[C@H]2CCNC2)nc(N(C)CC(C)C)n1` ; wanted: its IC50
< 1 µM

----------
# Lookup of reported pIC50 keyed by entry
- measured_on: UniProtKB Q16539
- test_description: Inhibition of p38 Kinase Activity
pIC50: −log10 of the molar value.

Before answering, review these 2 worked examples.
CC(CNc1nc(N)nc(Nc2ccc3ncsc3c2)n1)c1ccccc1 (centres undefined)    > 5.00
CC1(C)C2CCC(CNc3nc(Nc4ccc5ncoc5c4)nc(N4CCNCC4)n3)C1C2 (centres undefined)    > 5.00

Find the measured pIC50: item `CCN1C[C@@H](Nc2nc(Nc3cc(C(N)=O)ccc3C)nc(N(C)CC(C)(C)C)n2)C[C@H]1C` , target or system UniProtKB Q16539.
> 6.00

How about `CONC(=O)c1ccc(C)c(Nc2nc(N[C@H]3CCNC3)cc(N(C)CC(C)(C)C)n2)c1` ?
> 6.00

How about `Cc1ccc(-c2nc3ccccc3[nH]2)cc1Nc1nc(N[C@@H]2CCNC2)nc(N(C)CC(C)(C)C)n1` ?
> 6.00

How about Cc1ccc(C(N)=O)cc1Nc1nc(N[C@H]2CCNC2)nc(N(C)CC(C)C(F)(F)F)n1 (some centres undefined) ?
> 6.00

How about Cc1ccc(C(N)=O)cc1Nc1nc(NC(C)C2CCCCC2)nc(N2CCNCC2)n1 (centres undefined) ?
> 6.00

How about CNCCN(C)c1nc(NCC(C)c2ccccc2)nc(Oc2ccc3ncsc3c2)n1 (centres undefined) ?
> 5.00

How about COCCCN1CCC(Nc2nc(Nc3cc(C(N)=O)ccc3C)nc(N(C)CC(C)C)n2)C1 (centres undefined) ?
> 6.00
